Data origin, for the record: paper PMC9604064

Target: integrin αVβ3 (Homo sapiens, UniProt P05106+P06756)
Construct: purchased R&D Systems Inc. (Minneapolis, MN, USA)
Sequence (P06756 31-992): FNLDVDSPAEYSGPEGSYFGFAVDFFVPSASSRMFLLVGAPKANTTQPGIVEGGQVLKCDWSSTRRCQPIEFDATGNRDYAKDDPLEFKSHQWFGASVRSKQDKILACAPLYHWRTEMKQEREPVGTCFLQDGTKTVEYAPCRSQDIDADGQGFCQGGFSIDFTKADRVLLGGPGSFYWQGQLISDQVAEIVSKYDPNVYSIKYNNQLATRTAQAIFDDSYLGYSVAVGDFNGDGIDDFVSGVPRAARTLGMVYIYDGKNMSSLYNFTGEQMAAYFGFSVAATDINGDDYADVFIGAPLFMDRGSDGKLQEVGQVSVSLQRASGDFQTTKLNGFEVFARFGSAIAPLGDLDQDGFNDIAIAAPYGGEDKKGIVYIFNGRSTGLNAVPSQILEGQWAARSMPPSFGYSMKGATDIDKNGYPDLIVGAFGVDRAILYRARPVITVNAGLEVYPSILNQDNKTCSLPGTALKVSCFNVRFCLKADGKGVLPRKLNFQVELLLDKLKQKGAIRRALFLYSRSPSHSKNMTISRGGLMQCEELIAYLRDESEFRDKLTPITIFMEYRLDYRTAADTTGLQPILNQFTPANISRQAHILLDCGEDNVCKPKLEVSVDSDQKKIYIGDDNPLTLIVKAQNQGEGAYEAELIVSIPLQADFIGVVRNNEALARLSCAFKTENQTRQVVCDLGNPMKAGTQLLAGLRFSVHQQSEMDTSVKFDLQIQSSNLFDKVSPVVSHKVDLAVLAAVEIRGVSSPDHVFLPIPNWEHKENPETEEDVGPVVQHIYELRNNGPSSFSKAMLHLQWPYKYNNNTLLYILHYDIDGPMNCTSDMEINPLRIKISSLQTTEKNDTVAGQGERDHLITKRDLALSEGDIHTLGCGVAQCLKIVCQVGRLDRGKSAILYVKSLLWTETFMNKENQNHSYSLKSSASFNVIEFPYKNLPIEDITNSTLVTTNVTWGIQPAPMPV
Sequence (P05106 27-718): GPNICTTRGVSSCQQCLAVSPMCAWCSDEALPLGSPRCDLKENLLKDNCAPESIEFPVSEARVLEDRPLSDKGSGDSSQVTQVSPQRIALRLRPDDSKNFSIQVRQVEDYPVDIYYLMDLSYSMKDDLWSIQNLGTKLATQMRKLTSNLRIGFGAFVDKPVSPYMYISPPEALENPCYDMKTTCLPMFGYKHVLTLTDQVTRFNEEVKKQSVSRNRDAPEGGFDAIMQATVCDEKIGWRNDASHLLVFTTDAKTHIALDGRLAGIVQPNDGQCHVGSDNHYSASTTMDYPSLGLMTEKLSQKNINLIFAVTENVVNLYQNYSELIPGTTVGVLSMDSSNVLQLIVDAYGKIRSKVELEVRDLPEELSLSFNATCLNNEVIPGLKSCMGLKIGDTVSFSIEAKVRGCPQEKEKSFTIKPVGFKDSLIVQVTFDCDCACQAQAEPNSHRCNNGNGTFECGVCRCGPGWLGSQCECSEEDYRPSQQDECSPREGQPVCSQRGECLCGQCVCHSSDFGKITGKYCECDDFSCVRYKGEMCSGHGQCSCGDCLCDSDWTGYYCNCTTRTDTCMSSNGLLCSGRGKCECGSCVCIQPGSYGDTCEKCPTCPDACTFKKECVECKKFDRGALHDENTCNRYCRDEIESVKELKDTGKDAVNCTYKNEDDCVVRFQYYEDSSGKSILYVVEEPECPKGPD
Experiment: biochemical
Type: binding
pIC50: −log10 of the molar value.

# SMILES DATA, TARGET ENTITY, pIC50
data = [
    ("NCC(=O)O", "integrin αVβ3 (Homo sapiens, UniProt P05106+P06756)", "< 1.66"),
]

---

Target: integrin α5β1 (Homo sapiens, UniProt P05556+P08648)
Construct: purchased R&D Systems Inc. (Minneapolis, MN, USA)
Sequence (P08648 42-995 limits assumed): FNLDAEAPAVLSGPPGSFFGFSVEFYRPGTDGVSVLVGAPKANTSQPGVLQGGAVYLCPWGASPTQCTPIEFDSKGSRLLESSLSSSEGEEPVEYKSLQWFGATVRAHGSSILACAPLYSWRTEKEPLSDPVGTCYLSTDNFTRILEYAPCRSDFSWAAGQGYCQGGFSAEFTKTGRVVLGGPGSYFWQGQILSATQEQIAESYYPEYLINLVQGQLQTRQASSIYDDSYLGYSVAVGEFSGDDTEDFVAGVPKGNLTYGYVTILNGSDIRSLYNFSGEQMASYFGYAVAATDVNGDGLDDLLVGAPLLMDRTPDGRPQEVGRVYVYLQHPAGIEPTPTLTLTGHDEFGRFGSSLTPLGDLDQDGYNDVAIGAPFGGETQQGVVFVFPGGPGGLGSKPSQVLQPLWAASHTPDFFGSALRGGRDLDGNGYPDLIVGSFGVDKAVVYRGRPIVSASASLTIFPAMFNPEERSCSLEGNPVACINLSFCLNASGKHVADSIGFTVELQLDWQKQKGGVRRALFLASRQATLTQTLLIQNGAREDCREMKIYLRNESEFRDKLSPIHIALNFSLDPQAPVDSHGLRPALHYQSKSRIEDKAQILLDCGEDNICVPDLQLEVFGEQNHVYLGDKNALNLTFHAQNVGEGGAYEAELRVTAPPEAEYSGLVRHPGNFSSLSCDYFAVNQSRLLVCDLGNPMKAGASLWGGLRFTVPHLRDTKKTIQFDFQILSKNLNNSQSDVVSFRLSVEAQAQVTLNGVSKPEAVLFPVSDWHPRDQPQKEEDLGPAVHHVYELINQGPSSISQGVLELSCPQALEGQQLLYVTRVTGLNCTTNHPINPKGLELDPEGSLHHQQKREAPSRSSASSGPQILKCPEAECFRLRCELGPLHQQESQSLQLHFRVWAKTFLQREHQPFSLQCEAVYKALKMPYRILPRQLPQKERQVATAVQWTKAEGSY
Sequence (P05556 21-728 limits assumed): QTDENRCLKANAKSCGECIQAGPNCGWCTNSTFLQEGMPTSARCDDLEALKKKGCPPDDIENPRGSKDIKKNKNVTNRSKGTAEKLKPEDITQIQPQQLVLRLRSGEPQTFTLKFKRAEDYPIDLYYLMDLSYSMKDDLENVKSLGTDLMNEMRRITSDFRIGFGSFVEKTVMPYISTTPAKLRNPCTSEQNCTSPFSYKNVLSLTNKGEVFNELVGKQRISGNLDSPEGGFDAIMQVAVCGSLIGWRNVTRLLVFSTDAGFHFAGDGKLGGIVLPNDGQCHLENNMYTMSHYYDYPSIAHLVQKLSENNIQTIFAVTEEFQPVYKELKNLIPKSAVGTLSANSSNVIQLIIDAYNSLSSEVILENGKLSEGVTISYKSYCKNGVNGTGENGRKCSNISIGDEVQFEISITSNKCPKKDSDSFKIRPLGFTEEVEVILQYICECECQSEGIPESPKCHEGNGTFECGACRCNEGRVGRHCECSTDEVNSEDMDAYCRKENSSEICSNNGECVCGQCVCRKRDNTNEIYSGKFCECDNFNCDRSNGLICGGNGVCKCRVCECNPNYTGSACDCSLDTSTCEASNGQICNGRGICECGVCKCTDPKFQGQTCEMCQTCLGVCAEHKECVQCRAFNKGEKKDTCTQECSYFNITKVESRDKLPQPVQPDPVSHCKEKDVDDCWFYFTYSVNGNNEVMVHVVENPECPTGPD
Experiment: biochemical
Format: binding
Conditions: integrin α5β1, immobilized RGD polymer; ligand range 0.1-22 mM
pIC50: −log10 of the molar value.
Here the recorded pIC50 is given for each entry.

# COMPOUND, TARGET ENTITY, pIC50
measured = [
    ("CC(=O)N(CC(=O)O)CP(=O)(O)O [N-acetylglyphosate]", "integrin α5β1 (Homo sapiens, UniProt P05556+P08648)", "< 1.66"),
    ("NCP(=O)(O)O [Aminomethylphosphonic acid (AMPA), aminomethylphosphonic acid]", "integrin α5β1 (Homo sapiens, UniProt P05556+P08648)", "< 1.66"),
    ("CNCC(=O)O [Sarcosine]", "integrin α5β1 (Homo sapiens, UniProt P05556+P08648)", "< 1.66"),
    ("CC(=O)NCC(=O)O [Acetylglycine]", "integrin α5β1 (Homo sapiens, UniProt P05556+P08648)", 2.24),
    ("O=C(O)CNCP(=O)(O)O [Glyphosate, N-(phosphonomethyl)glycine]", "integrin α5β1 (Homo sapiens, UniProt P05556+P08648)", 2.01),
    ("O=C(O)CNCC(=O)O [Iminodiacetic acid]", "integrin α5β1 (Homo sapiens, UniProt P05556+P08648)", "< 1.66"),
]
